target: KRas(G12V) (Homo sapiens (Human), UniProt P01116, G12V); experiment: KRas(G12V) GDP HTRF (BODIPY-GDP exchange TR-FRET)
Sequence (P01116-2 other isoform, or with tags, fused parts or gaps G12V): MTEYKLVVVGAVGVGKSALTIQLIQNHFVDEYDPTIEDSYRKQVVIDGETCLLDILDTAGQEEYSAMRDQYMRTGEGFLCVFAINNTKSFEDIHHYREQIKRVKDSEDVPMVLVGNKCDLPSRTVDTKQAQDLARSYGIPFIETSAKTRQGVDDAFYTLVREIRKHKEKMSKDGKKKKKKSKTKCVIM
Threshold 0.1 nM: IC50 strictly smaller gives Satisfied, otherwise Not satisfied.

# example entries with known answers
Request: Lab log: compare recorded IC50 with 0.1 nM; is it strictly lower for Cc1cc(N)nc(-c2cc3ncnc4c3c(c2Cl)OCCN4C)c1C(F)(F)F ?
Result: Not satisfied

Request: # check: IC50 < 0.1 nM for CNc1cncc(CN2CCOc3c(Cl)c(-c4nc(N)cc(C)c4C(F)(F)F)cc4ncnc2c34)c1
Result: Not satisfied

Request: In the record for Cc1cc(N)nc(-c2cc3ncnc4c3c(c2Cl)OCCN4C(C)CO)c1C(F)(F)F (centres unmarked) , is IC50 less than 0.1 nM?
Result: Not satisfied

Request: Lab note: IC50 threshold 0.1 nM. Does this compound come in strictly under it? Cc1c(F)c(N)cc(-c2c(Cl)c3c4c(nc(OC[C@@]56CCCN5C[C@H](F)C6)nc4c2F)N([C@H](C)c2cccnc2N)CCO3)c1C(F)(F)F (atropisomer, axis not shown; (aS)) [Example 76a]
Result: Satisfied

Request: Strictly below 0.1 nM in IC50? Cc1cc(N)nc(-c2c(Cl)c3c4c(ncnc4c2F)N([C@H](C)c2cccnc2N)CCO3)c1C(F)(F)F (atropisomer, axis not shown) [Example 53b]
Result: Not satisfied

Request: Record Cc1cc(N)nc(-c2c(Cl)c3c4c(nc(OC[C@@]56CCCN5C[C@]5(CC5(F)F)C6)nc4c2F)N([C@H](C)c2cccnc2N)CCO3)c1C(F)(F)F (atropisomer, axis not shown) [Example 111a] : is its IC50 strictly below 0.1 nM?
Result: Not satisfied

Request: Criterion: IC50 strictly below 0.1 nM. Is it met by Cc1cc(N)nc(-c2c(Cl)c3c4c(nc(OC[C@@H]5CC[C@H]6COCCN65)nc4c2F)N([C@H](C)c2cccnc2N)CCO3)c1C(F)(F)F (atropisomer, axis not shown; (aS)) [Example 87a] ?
Result: Satisfied

Request: API: query returns whether the compound falls strictly under 0.1 nM in IC50. Query: Cc1cc(N)nc(-c2cc3ncnc4c3c(c2Cl)OCCN4Cc2cccnc2)c1C(F)(F)F
Result: Not satisfied

Request: Does this compound meet the criterion IC50 < 0.1 nM? Cc1cc(N)nc(-c2c(Cl)c3c4c(nc(OC[C@H]5CC[C@@H]6COC(F)(F)CN56)nc4c2F)N([C@H](C)c2cccnc2N)CCO3)c1C(F)(F)F (atropisomer, axis not shown; (aR)) [Example 91b]
Result: Not satisfied

New cases:
Request: A record lists Cc1cc(N)nc(-c2c(Cl)c3c4c(nc(OC[C@H]5CC[C@@H]6COCCCN65)nc4c2F)N([C@H](C)c2cccnc2N)CCO3)c1C(F)(F)F (atropisomer, axis not shown; (aR)) [Example 120b] . Is its IC50 below 0.1 nM?
Result: Satisfied
